Recorded values, source ChEMBL document CHEMBL2057166.

PROCEDURE DETAILS: Clearance in CD-1 mouse at 3 mg/kg, iv and 10 mg/kg, po
Type: ADME, organism-based
ASSAY CONDITIONS: in vivo
In this section, each of the molecules is paired with its reported clearance.
Express the reported value numerically, then name its unit.

>  <MOL>
Cc1ccc(-c2ncc(C)n2C)cc1NC(=O)c1ccc(OCc2ccccn2)cc1

>  <clearance>
210 mL/min/kg

$$$$

Now consider the entry below.
Problem: Fill in: clearance of Cc1ccc(-c2ncc[nH]2)cc1NC(=O)c1ccc(OCc2ccccn2)cc1 is ___
Result: 8.3 mL/min/kg
